target: ScSho1; test: SPOT peptide array binding signal intensity (averaged, normalized) (arbitrary units (background-subtracted, floor 0; scale differs between SH3 domains)); higher = stronger binding of the SH3 domain to the peptide
measured_quantity: SPOT peptide array binding signal intensity

>>> recorded_measurement("ATNVPVAPPPPPASL")
"≤ 0"
>>> recorded_measurement("QTMRQAPKRPDADVA")
930
>>> recorded_measurement("VNIPSPSSSPPPIPK")
1.5
>>> recorded_measurement("HAPPLPPTAPPPPSL")
"≤ 0"
>>> recorded_measurement("RPPRPPPKPLHLRTE")
1530
>>> recorded_measurement("IAPIPMPKPNPTHIS")
158
>>> recorded_measurement("NSMRPPLLIPAATTK")
562
>>> recorded_measurement("SRQAIPPPVPNRPGG")
32
>>> recorded_measurement("TSIEIPKRSPLRFTS")
0.5
>>> recorded_measurement("IRMPSNPALPKKLLN")
1060
>>> recorded_measurement("NRPAIRIPSLKKPAL")
412
>>> recorded_measurement("GLRRARYKFPGQQKI")
296
>>> recorded_measurement("VQQDSLPKLPFRSWG")
300
>>> recorded_measurement("RPKRRAPPPVPKKPS")
2030
>>> recorded_measurement("TTAPALPSLPPPPLL")
42
>>> recorded_measurement("RLSFFFPLDPAYIRN")
738
>>> recorded_measurement("LRIKRKPVQTFFEFI")
718
>>> recorded_measurement("NQARKPFLLPATELS")
105
>>> recorded_measurement("VATSTSPKLPPRGKQ")
40.5
>>> recorded_measurement("LTRRFPFLFPFDTRM")
335
>>> recorded_measurement("QQEQNTPPLPPKPKS")
152
>>> recorded_measurement("RSRRSSFAYPQQVAI")
304
>>> recorded_measurement("PVLPPPRSPNRPTLS")
7
>>> recorded_measurement("QDKEGIPPDQQRLIF")
"≤ 0"
>>> recorded_measurement("GATNNAPTLPKRKNP")
"≤ 0"
>>> recorded_measurement("NRLRKRLNLPSEISI")
662
>>> recorded_measurement("WRPRIVPILPYITRL")
182
>>> recorded_measurement("PKMLPIPSKPTLFDL")
673
>>> recorded_measurement("QPPLPSSAPPIPTSH")
"≤ 0"
>>> recorded_measurement("PPPPPPPPPPLPQSL")
28.5
